System: M-07e cells
Assay: M-07e cellular assay (SCF-mediated cell proliferation)
Assay type: cell-based
Conditions: Homo sapiens, 72 hours, CellTiter Glo
pEC50: −log10 of the molar value.
pEC50 overview

Use these answered entries as a reference point.
{"compound": "COC(=O)N1CCC(c2nc(-c3ccc(C)c(NC(=O)c4cnn5ccc(N6CC7(C6)CC(O)(C(F)F)C7)cc45)c3)no2)C1 (stereo not drawn)", "pEC50": "> 7.00"}
{"compound": "Cc1ccc(-c2noc([C@H]3C[C@@H]3F)n2)cc1NC(=O)c1cnn2ccc(N3C[C@@H]4C[C@H]3CO4)cc12", "pEC50": "> 7.00"}

For record COC(=O)N1C[C@H](c2nc(-c3cnc(C)c(NC(=O)c4cnn5ccc(N6CC7(C6)CC(O)(C(F)F)C7)cc45)c3)no2)[C@H]1C the listed pEC50 is 6.00 to 7.00

----------
Target: Recombinant human c-KIT kinase (Homo sapiens (Human), UniProt P10721)
Sequence (P10721 26-976): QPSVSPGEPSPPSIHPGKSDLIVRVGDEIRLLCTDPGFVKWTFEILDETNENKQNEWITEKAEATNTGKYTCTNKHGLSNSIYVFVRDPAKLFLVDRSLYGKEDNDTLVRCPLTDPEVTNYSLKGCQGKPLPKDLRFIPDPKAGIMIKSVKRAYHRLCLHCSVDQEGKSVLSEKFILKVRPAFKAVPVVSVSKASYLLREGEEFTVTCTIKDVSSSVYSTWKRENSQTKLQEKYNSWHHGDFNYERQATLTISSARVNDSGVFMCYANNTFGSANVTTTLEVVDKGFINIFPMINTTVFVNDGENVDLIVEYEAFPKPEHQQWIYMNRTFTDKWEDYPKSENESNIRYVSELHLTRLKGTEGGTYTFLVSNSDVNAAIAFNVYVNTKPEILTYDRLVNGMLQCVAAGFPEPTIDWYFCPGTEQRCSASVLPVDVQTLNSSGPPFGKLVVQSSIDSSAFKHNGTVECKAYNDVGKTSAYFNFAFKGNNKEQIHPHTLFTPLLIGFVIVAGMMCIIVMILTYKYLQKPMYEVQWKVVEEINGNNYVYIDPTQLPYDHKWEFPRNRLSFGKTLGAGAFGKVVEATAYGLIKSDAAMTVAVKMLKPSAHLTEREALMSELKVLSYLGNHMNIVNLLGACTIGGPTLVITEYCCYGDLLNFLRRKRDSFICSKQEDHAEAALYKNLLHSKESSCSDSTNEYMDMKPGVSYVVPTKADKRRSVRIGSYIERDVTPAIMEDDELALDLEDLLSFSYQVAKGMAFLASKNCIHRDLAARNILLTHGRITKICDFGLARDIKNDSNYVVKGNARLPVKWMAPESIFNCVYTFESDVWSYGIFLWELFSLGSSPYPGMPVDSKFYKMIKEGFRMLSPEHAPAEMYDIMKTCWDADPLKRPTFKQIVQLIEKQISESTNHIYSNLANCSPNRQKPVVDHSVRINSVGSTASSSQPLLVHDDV
Assay: c-KIT kinase chemiluminescence assay (ADP-Glo)
Settings: ATP 50 μM
Protocol: The c-KIT Kinase Enzyme System (V4498) and ADP-Glo™ Kinase Assay kit (V6930) were purchased from Promega (Madison, WI). DMSO (D2650) was purchased from Sigma-Aldrich (Burlington, MA). […] ADP detection with ADP-Glo™ Kinase Assay: After the kinase reaction incubation, 5 μL of ADP-Glo™ reagent was added to all wells. […] Kinase activity was measured as increase in luminescence at RT in an Envision plate reader equipped with 560 nm filters and operating in endpoint mode. […]
IC50 overview

{"smilesRecord": "CO[C@H]1C[C@H](c2nc(-c3ccc(C)c(NC(=O)c4cnn5ccc(N6CC7(COC7)C6)cc45)c3)no2)C1", "val": "100 to 1000 nM"}
{"smilesRecord": "Cc1ccc(-c2noc([C@H]3C[C@@H]3F)n2)cc1NC(=O)c1cnn2ccc(N3CC4(COC(C)(C)OC4)C3)cc12", "val": "< 100 nM"}
{"smilesRecord": "Cc1ccc(-c2noc([C@H]3C[C@@H]3F)n2)cc1NC(=O)c1cnn2ccncc12", "val": "100 to 1000 nM"}
{"smilesRecord": "Cc1ccc(-c2noc([C@H]3C[C@@H]3F)n2)cc1NC(=O)c1cnn2ccc(NC(=O)OCc3ccccc3)cc12", "val": "100 to 1000 nM"}

For record Cc1ccc(-c2noc([C@H]3C[C@@H]3F)n2)cc1NC(=O)c1cnn2ccc(NC(=O)NC3CC3)cc12 the listed IC50 is 100 to 1000 nM

For record [2H]C([2H])([2H])c1ccc(-c2noc([C@H]3C[C@@H](OC(F)F)C3)n2)cc1NC(=O)c1cnn2ccc(N3CC4(COC4)C3)cc12 the listed IC50 is < 100 nM

For record CC#Cc1ccc2c(C(=O)Nc3cc(-c4noc([C@H]5C[C@@H]5F)n4)ccc3C)cnn2c1 the listed IC50 is < 100 nM

----------
pIC50 overview
Target: Recombinant human c-KIT kinase (Homo sapiens (Human))
Experiment: c-KIT kinase chemiluminescence assay (ADP-Glo)
Conditions: ATP 50 μM
pIC50: −log10 of the molar value.

{"smilesRecord": "Cc1ccc(-c2noc([C@H]3C[C@@H]3F)n2)cc1NC(=O)c1cnc(-c2ccc3c(c2)C2(CCNCC2)C(=O)N3)o1", "val": "6.00 to 7.00"}
{"smilesRecord": "Cc1sc(-c2noc(C3CN(C(=O)OC(C)(C)C)C3)n2)cc1NC(=O)c1cnn2ccc(N3CC4(C3)CC(O)(C(F)F)C4)cc12", "val": "< 6.00"}
{"smilesRecord": "COC(=O)N1C[C@H](c2nc(-c3cnc(C)c(NC(=O)c4cnn5ccc(N6CC7(C6)CC(O)(C(F)F)C7)cc45)c3)no2)[C@H]1C", "val": "6.00 to 7.00"}
{"smilesRecord": "Cc1ccc(-c2noc([C@H]3C[C@@H]3F)n2)cc1NC(=O)c1cnn2cc(-c3cn(CCO)nn3)ccc12", "val": "> 7.00"}

For record Cc1ccc(-c2noc([C@H]3C[C@@H]3F)n2)cc1NC(=O)c1cnc(-c2ccnc(NC(=O)OC(C)(C)C)c2)o1 the listed pIC50 is < 6.00

For record Cc1ccc(-c2noc([C@H]3C[C@@H]3F)n2)cc1NC(=O)c1cnc(N2CC(C(=O)OC(C)(C)C)C2)s1 the listed pIC50 is < 6.00

----------
Test system: M-07e cells
Experiment: M-07e cellular assay (SCF-mediated cell proliferation)
Format: cell-based
Details: Homo sapiens, 72 hours, CellTiter Glo
EC50 overview

Use these answered entries as a reference point.
{"smilesRecord": "Cc1ccc(-c2noc([C@H]3C[C@@H](OC(F)F)C3)n2)cc1NC(=O)c1cnn2cc(-c3cn(C(F)(F)C(=O)O)nn3)ccc12", "EC50": "> 1 µM"}
{"smilesRecord": "Cc1ncc(-c2noc(C3CN(C(=O)[C@H]4C[C@@H]4F)C3)n2)cc1NC(=O)c1cnn2ccc(N3CC4(COC4)C3)cc12", "EC50": "> 1 µM"}
{"smilesRecord": "Cc1ccc(-c2noc(C3CN(C(=O)C4(F)CC4)C3)n2)cc1NC(=O)c1cnn2ccc(N3CC4(COC4)C3)cc12", "EC50": "0.1 to 1 µM"}

For record Cc1ccc(-c2noc([C@H]3C[C@@H]3F)n2)cc1NC(=O)c1cnn2ccc(N3CC(C(F)(F)F)C3)cc12 the listed EC50 is 0.1 to 1 µM

For record Cc1ccc(-c2noc([C@H]3C[C@@H]3F)n2)cc1NC(=O)c1cnc(-c2ccc3cn(C)nc3c2)o1 the listed EC50 is 0.1 to 1 µM

For record O=C(Nc1cc(-c2noc(N3CC(O)(C(F)(F)F)C3)n2)ccc1Cl)c1cnn2ccc(N3CC4(COC4)C3)cc12 the listed EC50 is < 0.1 µM

----------
Biological target: Recombinant human c-KIT kinase (Homo sapiens (Human), UniProt P10721)
Experiment: c-KIT kinase chemiluminescence assay (ADP-Glo)
Settings: ATP 50 μM
IC50 overview

Use these answered entries as a reference point.
{"molecule": "Cc1ccc(-c2noc([C@H]3C[C@@H]3F)n2)cc1NC(=O)c1ccnc2ccccc12 [Example 27]", "testedSystem": "Recombinant human c-KIT kinase (Homo sapiens (Human), UniProt P10721)", "IC50": "> 1 µM"}
{"molecule": "Cc1ncc(-c2ccc(OC(F)F)cn2)cc1NC(=O)c1cnn2ccc(N3CC4(C3)CC(O)(C(F)F)C4)cc12 [Example 331]", "testedSystem": "Recombinant human c-KIT kinase (Homo sapiens (Human), UniProt P10721)", "IC50": "0.1 to 1 µM"}
{"molecule": "Cc1ccc(-c2noc([C@H]3C[C@@H](C(F)(F)F)C3)n2)cc1NC(=O)c1cnc(-c2ccc3c(c2)CC(=O)N3)o1 [Example 308-2]", "testedSystem": "Recombinant human c-KIT kinase (Homo sapiens (Human), UniProt P10721)", "IC50": "< 0.1 µM"}

For record Cc1ccc(-c2noc([C@H]3C[C@@H]3F)n2)cc1NC(=O)c1cnn2ccc(C(=O)NC3CCCCC3)cc12 [Example 91] the listed IC50 is 0.1 to 1 µM

For record Cc1ccc(-c2noc([C@H]3C[C@@H]3F)n2)cc1NC(=O)c1cn(-c2ccccc2)nc1C [Example 53] the listed IC50 is > 1 µM

For record Cc1ccc(-c2noc([C@H]3C[C@@H]3F)n2)cc1NC(=O)c1cnc2[nH]ccc2c1 [Example 33] the listed IC50 is > 1 µM

For record Cc1ccc(-c2noc([C@H]3C[C@@H]3F)n2)cc1NC(=O)c1cnc(-c2ccc3c(c2)NC(=O)CO3)o1 [Example 308-52] the listed IC50 is 0.1 to 1 µM

For record Cc1ccc(-c2noc([C@H]3C[C@@H]3F)n2)cc1NC(=O)c1cnc2ccncc2c1 [Example 64] the listed IC50 is > 1 µM

----------
Biological target: Recombinant human c-KIT kinase (Homo sapiens (Human), UniProt P10721)
Experiment: c-KIT kinase chemiluminescence assay (ADP-Glo)
Conditions: ATP 50 μM
pIC50: −log10 of the molar value.
pIC50 overview

Use these answered entries as a reference point.
{"compound": "Cc1ccc(-c2noc([C@H]3C[C@@H]3F)n2)cc1NC(=O)c1cnn2ccc(-n3cc(NC(=O)OC(C)(C)C)cn3)cc12 [Example 236]", "testedSystem": "Recombinant human c-KIT kinase (Homo sapiens (Human), UniProt P10721)", "pIC50": "6.00 to 7.00"}
{"compound": "Cc1ccc(-c2noc([C@H]3C[C@@H]3F)n2)cc1NC(=O)c1cnc(-c2ccc3c(c2)C2(CC2)C(=O)N3)o1 [Example 308-4]", "testedSystem": "Recombinant human c-KIT kinase (Homo sapiens (Human), UniProt P10721)", "pIC50": "6.00 to 7.00"}
{"compound": "Cc1ccc(-c2noc([C@H]3C[C@@H]3F)n2)cc1NC(=O)c1nnc2ccccn12 [Example 20]", "testedSystem": "Recombinant human c-KIT kinase (Homo sapiens (Human), UniProt P10721)", "pIC50": "< 6.00"}
{"compound": "Cc1ccc(-c2noc([C@H]3C[C@@H]3F)n2)cc1NC(=O)c1cnn2ccc(-c3c(C)nc(N4CC5(COC5)C4)nc3C)cc12 [Example 171-14]", "testedSystem": "Recombinant human c-KIT kinase (Homo sapiens (Human), UniProt P10721)", "pIC50": "6.00 to 7.00"}
{"compound": "Cc1ncc(-c2noc(C3CC(F)(F)C3)n2)cc1NC(=O)c1cnn2ccc(N3CC4(COC4)C3)cc12 [Example 281-67]", "testedSystem": "Recombinant human c-KIT kinase (Homo sapiens (Human), UniProt P10721)", "pIC50": "6.00 to 7.00"}

For record Cc1ccc(-c2ncc(C3CC3)cn2)cc1NC(=O)c1cnn2ccc(N3CC4(COC4)C3)cc12 [Example 335] the listed pIC50 is > 7.00

For record O=C(Nc1cc(-c2noc(N3CC(O)(C(F)(F)F)C3)n2)ccc1Cl)c1cnn2ccc(N3CC4(C3)CC(O)(C(F)F)C4)cc12 [Example 281-125] the listed pIC50 is > 7.00
